# System: N. gonorrhoeae H041
# experiment.summary: Liquid broth MIC in Fastidious broth
# Format: cell-based
# conditions: Neisseria gonorrhoeae, H041, read-out: Minimum Inhibitory Concentration, N. gonorrhoeae H041
MIC for assorted molecules

Past entries and their recorded results:
• CS(=O)(=O)N1CCN(C(=O)N[C@@H](C(=O)N[C@H]2Cc3cccc(C(=O)O)c3OB2O)c2c(F)cc(O)cc2F)C1=O (single isomer, unassigned) [Example 135] = > 64 µg/mL
• NCCCN1CCN(C(=O)NC(C(=O)N[C@H]2Cc3cccc(C(=O)O)c3OB2O)c2c(F)cc(O)cc2F)C(=O)C1=O (stereo partly drawn) [Example 183] = > 64 µg/mL
• NCCN1CCN(C(=O)N[C@@H](C(=O)N[C@H]2Cc3ccc(F)c(C(=O)O)c3OB2O)c2cc(F)c(O)c(O)c2Cl)C(=O)C1=O (single isomer, unassigned) [Example 179] = > 64 µg/mL
• NS(=O)(=O)Nc1ccc(F)c(C(NC(=O)N2CCN(CCF)C(=O)C2=O)C(=O)N[C@H]2Cc3cccc(C(=O)O)c3OB2O)c1 (stereo partly drawn) [Example 198] = 16 to 32 µg/mL
• O=C(O)c1c(F)ccc2c1OB(O)[C@@H](NC(=O)C(NC(=O)N1CCN(CCF)C(=O)C1=O)c1c(F)cc(O)cc1F)C2 (stereo partly drawn) [Example 129] = 16 to 32 µg/mL

Now take the following molecule into account.
// MIC value for CCN1CCN(C(=O)NC(C(=O)N[C@H]2Cc3ccc(F)c(C(=O)O)c3OB2O)c2cc(F)c(O)c(O)c2Cl)C(=O)C1=O (stereo partly drawn) [Example 42] : 16 to 32 µg/mL

====

EC50 for assorted compounds
# target.of.assay: E. coli K12 PBP3 (Escherichia coli, UniProt P0AD68)
# Sequence (P0AD68 1-577): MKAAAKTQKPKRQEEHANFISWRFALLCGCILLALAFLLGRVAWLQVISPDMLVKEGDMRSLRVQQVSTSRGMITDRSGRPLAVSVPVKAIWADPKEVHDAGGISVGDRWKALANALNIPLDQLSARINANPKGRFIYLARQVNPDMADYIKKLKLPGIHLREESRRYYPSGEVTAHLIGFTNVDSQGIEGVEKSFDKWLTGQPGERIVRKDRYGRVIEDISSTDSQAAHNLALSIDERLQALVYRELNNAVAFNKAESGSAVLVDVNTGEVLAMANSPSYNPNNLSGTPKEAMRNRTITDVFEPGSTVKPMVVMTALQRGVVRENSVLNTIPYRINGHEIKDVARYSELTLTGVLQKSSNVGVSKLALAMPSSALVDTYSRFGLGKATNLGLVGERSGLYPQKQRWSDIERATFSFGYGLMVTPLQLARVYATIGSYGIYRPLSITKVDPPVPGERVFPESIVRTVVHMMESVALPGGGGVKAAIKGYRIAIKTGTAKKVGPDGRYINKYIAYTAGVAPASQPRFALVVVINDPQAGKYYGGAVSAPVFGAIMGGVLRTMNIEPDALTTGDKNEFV
# experiment.summary: biochemical

• CCN1CCN(C(=O)N[C@H](C(=O)N[C@H]2Cc3cccc(C(=O)O)c3OB2O)c2ccc(C(=O)O)cc2)C(=O)C1=O (single isomer, unassigned) = < 30 µM
• CCN1CCN(C(=O)N[C@@H](C(=O)N[C@H]2Cc3cccc(C(=O)O)c3OB2O)c2c(O)cc(O)cc2F)C(=O)C1=O (single isomer, unassigned) = < 30 µM
• CCN1CCN(C(=O)N[C@H](C(=O)N[C@H]2Cc3cccc(C(=O)O)c3OB2O)c2cc(F)c(C(=O)O)cc2Cl)C(=O)C1=O (single isomer, unassigned) = 30 to 500 µM
• CCN1CCN(C(=O)NC(C(=O)N[C@H]2Cc3cccc(C(=O)O)c3OB2O)c2cccc(C(=O)O)c2)C(=O)C1=O (some centres unmarked) = < 30 µM

// EC50 value for CCN1CCN(C(=O)NC(C(=O)N[C@H]2Cc3ccc(SCC[N+]4(C)CCCC4)c(C(=O)O)c3OB2O)c2csc(N)n2)C(=O)C1=O.O=C([O-])C(F)(F)F (some centres unmarked) [Example 65, 2,2,2-trifluoroacetate] : > 500 µM

// EC50 value for NCCN1CCN(C(=O)N[C@@H](C(=O)N[C@H]2Cc3ccc(F)c(C(=O)O)c3OB2O)c2c(F)cc(O)c(O)c2F)C(=O)C1=O (single isomer, unassigned) : < 30 µM

// EC50 value for CCN1CCN(C(=O)NC(C(=O)N[C@H]2Cc3cccc(C(=O)O)c3OB2O)c2cccc(NS(N)(=O)=O)c2)C(=O)C1=O (some centres unmarked) : < 30 µM
